The molecules listed here are annotated with their pIC50.
target: NK1 Receptor (Homo sapiens); construct: Measurement of NK1 Receptor Mediated Intracellular [Ca^2+]; Mobilization in U251 MG Cells Using FLIPR; endogenous in cells; assay: NK1 receptor mediated intracellular [Ca2+] mobilization in U251 MG cells using FLIPR; conditions: antagonism of Substance P (EC80), Fluo-4, read-out: NK1R mediated intracellular [Ca^2+] mobilization IC 50
Sequence (P25103 whole entry): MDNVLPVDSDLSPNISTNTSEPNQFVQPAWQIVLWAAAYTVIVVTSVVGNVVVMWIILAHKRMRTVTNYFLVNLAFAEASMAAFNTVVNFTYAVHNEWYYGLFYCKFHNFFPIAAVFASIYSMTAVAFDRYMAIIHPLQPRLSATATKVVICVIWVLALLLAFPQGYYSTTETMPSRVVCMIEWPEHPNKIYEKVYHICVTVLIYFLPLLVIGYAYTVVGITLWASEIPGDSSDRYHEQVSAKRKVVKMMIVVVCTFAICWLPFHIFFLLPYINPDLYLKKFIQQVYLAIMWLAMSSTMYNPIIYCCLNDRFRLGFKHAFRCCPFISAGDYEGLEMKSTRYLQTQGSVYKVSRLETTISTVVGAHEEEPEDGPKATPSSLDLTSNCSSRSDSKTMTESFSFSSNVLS
pIC50: −log10 of the molar value.
Measured endpoint: pIC50

{"Molecule": "Cc1ncc([C@H]2[C@@H]3CCC(=O)N3CCN2C(=O)N(C)[C@H](C)c2cc(C(F)(F)F)cc(C(F)(F)F)c2)s1", "Measured endpoint": "pIC50", "Observed": 7.54}
{"Molecule": "Cc1cc([C@@H](C)N(C)C(=O)N2CCN3C(=O)CC[C@H]3[C@@H]2c2ccsc2C)cc(C(F)(F)F)c1", "Measured endpoint": "pIC50", "Observed": 8.80}
{"Molecule": "COc1ccccc1[C@H]1[C@@H]2CC(CCO)(CCO)C(=O)N2CCN1C(=O)N(C)[C@H](C)c1cc(C(F)(F)F)cc(C(F)(F)F)c1", "Measured endpoint": "pIC50", "Observed": 9.09}
{"Molecule": "Cc1ccc(C)c([C@H]2[C@@H]3CC(CCO)(CCO)C(=O)N3CCN2C(=O)N(C)[C@H](C)c2cc(C(F)(F)F)cc(C(F)(F)F)c2)c1", "Measured endpoint": "pIC50", "Observed": 10.10}
{"Molecule": "CCc1cc([C@@H](C)N(C)C(=O)N2CCN3C(=O)C(CCO)(CCO)C[C@H]3[C@@H]2c2c[nH]nc2C)cc(C(F)(F)F)c1", "Measured endpoint": "pIC50", "Observed": 8.97}
{"Molecule": "C[C@H](c1cc(C(F)(F)F)cc(C(F)(F)F)c1)N(C)C(=O)N1CCN2C(=O)CC[C@H]2[C@@H]1c1ccc(F)cc1Cl (single isomer, unassigned) [Compound 84]", "Measured endpoint": "pIC50", "Observed": 8.94}

All figures here come from patent US20160207930A1.
